activation reference
biological target: Troponin I, cardiac muscle (Homo sapiens) + Troponin T, cardiac muscle (Homo sapiens) + Troponin C, slow skeletal and cardiac muscles (Homo sapiens) (UniProt P19429+P45379+P63316); experiment: cardiac RTF calcium sensitivity activators, confirmation, biochemical, IANBD-TnC fluorescence, triplicate (AID 504383); conditions: IANBD-labeled cardiac RTF, Ca2+ sensitivity fluorescence; at 7.2 µM; hits give high values; scaled from EC20 to saturating calcium; tested at EC20 calcium, 0.472 mM;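 further: 0% = DMSO at 0.472 mM calcium and 100% = DMSO at 2.9 mM calcium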
In all, about 2,500 compounds went through this assay and about 1,200 (48%) were called active. So high a share suggests a set chosen from earlier hits. Some of the results follow.
RESULT TYPE: activation (%)

{"COMPOUND": "C[n+]1cc(C(=O)N2CCCCC2)ccc1/C=C/c1c[nH]c2ccccc12", "MEASURED VALUE": 8.02}
{"COMPOUND": "CC1CC(C)CN(C(=O)COC(=O)CCc2nc3ccccc3c(=O)[nH]2)C1 (stereo not given)", "MEASURED VALUE": 8.84}
{"COMPOUND": "CCn1cc(/C=C/C(=O)Nc2c(C)nn(Cc3ccccc3C)c2C)cn1", "MEASURED VALUE": 7.35}
{"COMPOUND": "CC1CCN(c2ccc3c(c2)S(=O)(=O)c2cccc(C(=O)NCc4ccc(F)cc4)c2C3=O)CC1", "MEASURED VALUE": 1.28}
{"COMPOUND": "O=C(CC1CCCC1)N1CCN(S(=O)(=O)c2ccccc2)CC1", "MEASURED VALUE": 3.96}
{"COMPOUND": "O=C(c1cc(-c2cccs2)nn1-c1ccccc1)N1CCN(S(=O)(=O)c2ccccc2)CC1", "MEASURED VALUE": 3.27}
{"COMPOUND": "CC[n+]1ccc(/C=C/c2c[nH]c3ccccc23)cc1", "MEASURED VALUE": 167}
{"COMPOUND": "O=C(NCc1cccc(F)c1)c1cccc2c1C(=O)c1ccc(N3CCC(Cc4ccccc4)CC3)cc1S2(=O)=O", "MEASURED VALUE": 14.5}
{"COMPOUND": "O=C(NCc1ccco1)c1cccc2c1C(=O)c1ccc(N3CCCC3)cc1S2(=O)=O", "MEASURED VALUE": 7.33}
{"COMPOUND": "O=C(c1cnc2ccccc2n1)N1CCN(c2ccc(C(F)(F)F)cn2)CC1", "MEASURED VALUE": 32.8}
{"COMPOUND": "CN(C)c1ccc(/C=C/C(=O)c2c(O)c3ccccc3oc2=O)cc1", "MEASURED VALUE": 12.3}
{"COMPOUND": "C[n+]1ccc(/C=C/c2c[nH]c3ccccc23)cc1", "MEASURED VALUE": 45.7}
{"COMPOUND": "c1ccc(CCC2=NCCn3cccc32)cc1", "MEASURED VALUE": 15.8}
{"COMPOUND": "O=C(c1cc(Cl)ccc1O)N1CCN(S(=O)(=O)c2cccs2)CC1", "MEASURED VALUE": 683}
{"COMPOUND": "Cc1cc(C)n(CC(O)COc2ccccc2)n1 (stereo not given)", "MEASURED VALUE": 6.17}
{"COMPOUND": "O=C(NCCc1ccc(F)cc1)c1cccc2c1C(=O)c1ccc(N3CCC(Cc4ccccc4)CC3)cc1S2(=O)=O", "MEASURED VALUE": 107}
{"COMPOUND": "C(=Cc1c[nH]c2ccccc12)c1nccc2ccccc12", "MEASURED VALUE": 16.3}
{"COMPOUND": "CCC(=O)N/C(=N/c1nc(C)cc(C)n1)Nc1ccccc1", "MEASURED VALUE": 7.51}
{"COMPOUND": "CC(=O)c1sc2nc(-c3cccs3)cc(C(F)(F)F)c2c1N", "MEASURED VALUE": -0.48}
{"COMPOUND": "O=C(NCCc1ccccc1)c1ccc(Cl)nc1", "MEASURED VALUE": 16.1}
{"COMPOUND": "COC(=O)c1ccc(-c2ccc(F)cc2)nc1C", "MEASURED VALUE": -3.68}
{"COMPOUND": "Cn1c(O)c(/C=N/NC(=O)c2cc3ccccc3cc2O)c2ccccc21", "MEASURED VALUE": 228}
{"COMPOUND": "COc1cc2nc(/C=C/c3ccc(N(C)C)cc3)sc2cc1SC", "MEASURED VALUE": -0.52}
{"COMPOUND": "CC(=O)N1CCc2c(sc(NC(=O)C3CCCN3S(=O)(=O)c3cccs3)c2C(N)=O)C1 (stereo not given)", "MEASURED VALUE": 39.1}
{"COMPOUND": "O=C(O)/C=C/C(=O)NCc1csc2ccccc12", "MEASURED VALUE": 278}
{"COMPOUND": "COc1ccc(-c2cc(C(F)(F)F)c3c(N)c(C(=O)NCCSC)sc3n2)cc1", "MEASURED VALUE": 5.88}
{"COMPOUND": "Nc1c(C(=O)Nc2ccccc2F)sc2nc(Cc3ccccc3)cc(C(F)(F)F)c12", "MEASURED VALUE": 7.05}
{"COMPOUND": "Nc1c(C(=O)C2CC2)sc2nc(-c3cccs3)cc(C(F)(F)F)c12", "MEASURED VALUE": 18.1}
{"COMPOUND": "O=C1CCC(=O)N1CC(O)COc1ccccc1 (stereo not given)", "MEASURED VALUE": 255}
{"COMPOUND": "Cc1cc(/C=N/NC(N)=S)c(O)c(/C=N/NC(N)=S)c1", "MEASURED VALUE": 480}
{"COMPOUND": "O=C(CSc1n[nH]c(-c2cccs2)n1)N1CCOCC1", "MEASURED VALUE": 3.55}
{"COMPOUND": "O=C(Nc1ccc(Cl)cn1)C1CCN(S(=O)(=O)c2cccs2)CC1", "MEASURED VALUE": 242}
{"COMPOUND": "CC(C)(C)C(=O)c1sc2nc(-c3cccs3)cc(C(F)(F)F)c2c1N", "MEASURED VALUE": 12.4}
{"COMPOUND": "O=C(Nc1ccccc1N1CCOCC1)C1CCN(S(=O)(=O)c2ccccc2F)CC1", "MEASURED VALUE": 3.08}
{"COMPOUND": "C[n+]1ccc(/C=C/c2c[nH]c3ccc(F)cc23)cc1", "MEASURED VALUE": 5.69}
{"COMPOUND": "CCC(=O)Nc1ccc2oc(-c3cccnc3)nc2c1", "MEASURED VALUE": 210}
{"COMPOUND": "O=C(NCc1cccc(C(F)(F)F)c1)c1cccc2c1C(=O)c1ccc(N3CCC(Cc4ccccc4)CC3)cc1S2(=O)=O", "MEASURED VALUE": 8.69}
{"COMPOUND": "O=C(NCc1csc2ccccc12)Nc1cc(Cl)cc(Cl)c1", "MEASURED VALUE": 7.6}
{"COMPOUND": "CC1CCN(c2ccc3c(c2)S(=O)(=O)c2cccc(C(=O)NCc4cccc(F)c4)c2C3=O)CC1", "MEASURED VALUE": 8.22}
{"COMPOUND": "CC/C(=N/Nc1cccc(C)c1)c1cnnc(SC)n1", "MEASURED VALUE": 12.7}

Hello, the source for this data is PubChem BioAssay AID504383, in case you need it.
